// data source = ChEMBL document CHEMBL1144829

# Tgt: Cholesteryl ester transfer protein (Homo sapiens)
# Test Name: Inhibition of human CETP by scintillation proximity assay
pIC50: −log10 of the molar value.
The threshold is inclusive: pIC50 of exactly 6 counts as Satisfied; values below receive Not satisfied.

Reference set (3 entries):
{"Compound": "Cc1ccccc1OCC(=O)Nc1ccc(-c2nc3cc(C(F)(F)F)ccc3o2)cc1", "Discrete Label": "Satisfied"}
{"Compound": "Cc1ccccc1OCC(=O)Nc1ccc(-c2nc3cc(Br)ccc3o2)cc1", "Discrete Label": "Satisfied"}
{"Compound": "Cc1cc(C)c2oc(-c3ccc(NC(=O)COc4ccc(Cl)c(C)c4C)cc3)nc2c1", "Discrete Label": "Satisfied"}

-- ask Quick check, pIC50 >= 6? Cc1ccccc1OCC(=O)Nc1ccc(-c2nc3cccc(C)c3o2)cc1
-- reply Not satisfied

-- ask Quick check, pIC50 >= 6? Cc1cc(C)c2oc(-c3ccc(NC(=O)COc4c(C)cccc4Cl)cc3)nc2c1
-- reply Not satisfied

-- ask Quick check, pIC50 >= 6? COC(=O)c1ccc2oc(-c3ccc(NC(=O)COc4ccccc4C)cc3)nc2c1
-- reply Not satisfied

-- ask Quick check, pIC50 >= 6? Cc1cc(C)c2oc(-c3ccc(NC(=O)COc4ccc(F)cc4)cc3)nc2c1
-- reply Not satisfied

-- ask Quick check, pIC50 >= 6? Cc1cc(C)c2oc(-c3ccc(NC(=O)COc4ccc(C(F)(F)F)cc4)cc3)nc2c1
-- reply Not satisfied

-- ask Quick check, pIC50 >= 6? Cc1ccccc1OCC(=O)Nc1ccc(-c2nc3cc(F)ccc3o2)cc1
-- reply Not satisfied

====

# Tgt: Cholesteryl ester transfer protein (Homo sapiens, UniProt P11597)
# Test Name: Inhibition of human CETP by scintillation proximity assay
# key: entry, value: IC50
Kindly provide the numeric value in nM only, without the unit symbol.

Solved entries (count: 6):
{"Compound": "Cc1cc(Cl)ccc1OCC(=O)Nc1ccc(-c2nc3cc(C#N)ccc3o2)cc1", "Value Kind": "IC50", "Data Value": 85}
{"Compound": "CCS(=O)(=O)c1ccc2oc(-c3ccc(NC(=O)COc4ccccc4C)cc3)nc2c1", "Value Kind": "IC50", "Data Value": 9300}
{"Compound": "Cc1ccccc1OCC(=O)Nc1ccc(-c2nc3cc(C#N)ccc3o2)cc1", "Value Kind": "IC50", "Data Value": 57}
{"Compound": "COC(=O)c1c(Cl)ccc(OCC(=O)Nc2ccc(-c3nc4cc(C)cc(C)c4o3)cc2)c1C", "Value Kind": "IC50", "Data Value": 42}
{"Compound": "Cc1ccccc1OCC(=O)Nc1ccc(-c2nc3cc(CO)ccc3o2)cc1", "Value Kind": "IC50", "Data Value": 1300}
{"Compound": "Cc1ccccc1OCC(=O)Nc1ccc(-c2nc3cc(C#N)cc(Cl)c3o2)cc1", "Value Kind": "IC50", "Data Value": 52}

-- ask Which value of IC50 has been reported for Cc1ccccc1OCC(=O)Nc1ccc(-c2nc3cc(OC(F)(F)F)ccc3o2)cc1 in the records?
-- reply 11000

-- ask Which value of IC50 has been reported for Cc1ccccc1OCC(=O)Nc1ccc(-c2nc3cc([N+](=O)[O-])ccc3o2)cc1 in the records?
-- reply 120

-- ask Which value of IC50 has been reported for Cc1cc(C)c2oc(-c3ccc(NC(=O)COc4cccc(OC(F)(F)F)c4)cc3)nc2c1 in the records?
-- reply 3600

-- ask Which value of IC50 has been reported for Cc1ccccc1OCC(=O)Nc1ccc(-c2nc3cc(Cl)ccc3o2)cc1 in the records?
-- reply 470

-- ask Which value of IC50 has been reported for COC(=O)c1c(Cl)ccc(OCC(=O)Nc2ccc(-c3nc4cc(C#N)ccc4o3)cc2)c1C in the records?
-- reply 18

-- ask Which value of IC50 has been reported for Cc1cc(C)c2oc(-c3ccc(NC(=O)COc4cccc(F)c4)cc3)nc2c1 in the records?
-- reply 1100

-- ask Which value of IC50 has been reported for Cc1cc(C)c2oc(-c3ccc(NC(=O)COc4cccc(-c5ccccc5)c4)cc3)nc2c1 in the records?
-- reply 2300

-- ask Which value of IC50 has been reported for Cc1ccc2nc(-c3ccc(NC(=O)COc4ccccc4C)cc3)oc2c1 in the records?
-- reply 13000

====

# Tgt: Cholesteryl ester transfer protein (Homo sapiens)
# Test Name: Inhibition of CETP in human whole plasma
# key: entry, value: pIC50
// scale note: pIC50 = -log10(conc_M); give the bare number

Solved entries (count: 3):
{"Compound": "Cc1cc(C)c2oc(-c3ccc(NC(=O)COc4ccccc4C(F)(F)F)cc3)nc2c1", "Data Value": 4.04}
{"Compound": "COC(=O)c1c(Cl)ccc(OCC(=O)Nc2ccc(-c3nc4cc(C)cc(C)c4o3)cc2)c1C", "Data Value": 5.55}
{"Compound": "Cc1ccccc1OCC(=O)Nc1ccc(-c2nc3cc(C(F)(F)F)cc(C(F)(F)F)c3o2)cc1", "Data Value": 5.04}

-- ask GET /values?readout=pIC50&system=Cholesteryl ester transfer protein (Homo sapiens)&item= Cc1ccccc1OCC(=O)Nc1ccc(-c2nc3cc(Cl)ccc3o2)cc1
-- reply 4.68

-- ask GET /values?readout=pIC50&system=Cholesteryl ester transfer protein (Homo sapiens)&item= CC(=O)c1ccc2oc(-c3ccc(NC(=O)COc4ccccc4C)cc3)nc2c1
-- reply 4.74

-- ask GET /values?readout=pIC50&system=Cholesteryl ester transfer protein (Homo sapiens)&item= Cc1cc(C)c2oc(-c3ccc(NC(=O)COc4ccc(C)c5c4CCC5)cc3)nc2c1
-- reply 5.46

====

# Tgt: Cholesteryl ester transfer protein (Homo sapiens)
# Sequence (P11597 whole entry): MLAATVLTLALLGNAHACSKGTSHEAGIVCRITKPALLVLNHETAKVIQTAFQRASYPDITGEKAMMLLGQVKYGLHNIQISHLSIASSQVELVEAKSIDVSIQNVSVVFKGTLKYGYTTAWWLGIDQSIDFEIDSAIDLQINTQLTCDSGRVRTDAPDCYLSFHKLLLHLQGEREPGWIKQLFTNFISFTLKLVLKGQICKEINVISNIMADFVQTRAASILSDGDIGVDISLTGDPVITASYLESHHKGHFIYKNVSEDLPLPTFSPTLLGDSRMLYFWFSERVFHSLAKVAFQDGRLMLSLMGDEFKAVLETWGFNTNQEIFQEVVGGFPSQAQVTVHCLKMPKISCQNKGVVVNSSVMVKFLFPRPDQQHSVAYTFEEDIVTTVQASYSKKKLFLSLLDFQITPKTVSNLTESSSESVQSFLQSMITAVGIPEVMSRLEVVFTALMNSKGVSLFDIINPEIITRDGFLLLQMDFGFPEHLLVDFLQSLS
# Test Name: Inhibition of human CETP by scintillation proximity assay
# key: entry, value: pIC50
// scale note: pIC50 = -log10(conc_M); give the bare number

{"Compound": "Cc1ccccc1OCC(=O)Nc1ccc(-c2nc3cc(C(F)(F)F)cc(C(F)(F)F)c3o2)cc1", "Value Kind": "pIC50", "Data Value": 7.04}
{"Compound": "N#Cc1ccc2oc(-c3ccc(NC(=O)COc4ccc(Cl)c5c4CCC5)cc3)nc2c1", "Value Kind": "pIC50", "Data Value": 7.82}
{"Compound": "Cc1cc(Br)ccc1OCC(=O)Nc1ccc(-c2nc3cc(C#N)ccc3o2)cc1", "Value Kind": "pIC50", "Data Value": 7.96}
{"Compound": "COC(=O)c1ccccc1OCC(=O)Nc1ccc(-c2nc3cc(C)cc(C)c3o2)cc1", "Value Kind": "pIC50", "Data Value": 6.66}

Here is the next item to consider.
-- ask Which value of pIC50 has been reported for Cc1cc(C)c2oc(-c3ccc(NC(=O)COc4cccc(Cl)c4)cc3)nc2c1 in the records?
-- reply 5.89

====

# key: entry, value: pIC50
# Tgt: UniProtKB P11597
# Test Name: Inhibition of CETP in human whole plasma
// scale note: pIC50 = -log10(conc_M); give the bare number

Solved entries (count: 5):
{"Compound": "Cc1cc(C)c2oc(-c3ccc(NC(=O)COc4cccc(C(F)(F)F)c4)cc3)nc2c1", "Tgt": "UniProtKB P11597", "Value Kind": "pIC50", "Data Value": 4.49}
{"Compound": "Cc1cc(Br)ccc1OCC(=O)Nc1ccc(-c2nc3cc(C#N)ccc3o2)cc1", "Tgt": "UniProtKB P11597", "Value Kind": "pIC50", "Data Value": 5.37}
{"Compound": "Cc1cc(Cl)ccc1OCC(=O)Nc1ccc(-c2nc3cc(C#N)ccc3o2)cc1", "Tgt": "UniProtKB P11597", "Value Kind": "pIC50", "Data Value": 4.40}
{"Compound": "Cc1ccccc1OCC(=O)Nc1ccc(-c2nc3cc(CO)ccc3o2)cc1", "Tgt": "UniProtKB P11597", "Value Kind": "pIC50", "Data Value": 4.57}
{"Compound": "Cc1cc(C)c2oc(-c3ccc(NC(=O)COc4cccc(OC(F)(F)F)c4)cc3)nc2c1", "Tgt": "UniProtKB P11597", "Value Kind": "pIC50", "Data Value": 4.21}

-- ask GET /values?readout=pIC50&system=UniProtKB P11597&item= Cc1ccccc1OCC(=O)Nc1ccc(-c2nc3cc(C#N)ccc3o2)cc1
-- reply 5.48

-- ask GET /values?readout=pIC50&system=UniProtKB P11597&item= Cc1ccc(OCC(=O)Nc2ccc(-c3nc4cc(C)cc(C)c4o3)cc2)cc1
-- reply 4.59

-- ask GET /values?readout=pIC50&system=UniProtKB P11597&item= COC(=O)c1c(Cl)ccc(OCC(=O)Nc2ccc(-c3nc4cc(C#N)ccc4o3)cc2)c1C
-- reply 5.89

-- ask GET /values?readout=pIC50&system=UniProtKB P11597&item= N#Cc1ccc2oc(-c3ccc(NC(=O)COc4ccc(Cl)c(C(F)(F)F)c4)cc3)nc2c1
-- reply 5.37

-- ask GET /values?readout=pIC50&system=UniProtKB P11597&item= Cc1cc(C)c2oc(-c3ccc(NC(=O)COc4ccc(Br)cc4C)cc3)nc2c1
-- reply 5.49
